assay: Local concentrations of penicillin in saliva after topical medication of various doses (Example VII); format: in vivo, human; conditions: human, in vivo, topical or ocular, 100 mg topical powder, 20 min; studies 1-3
readout-label: concentration at 20 min (µg/mL)
Write the number in µg/mL without appending the unit.

// query concentration at 20 min value for entry CC1(C)S[C@@H]2[C@H](NC(=O)Cc3ccccc3)C(=O)N2[C@H]1C(=O)O [penicillin G potassium]
240000

---

test: Local concentrations of penicillin in saliva after topical medication of various doses (Example VII); format: in vivo, human; settings: human, in vivo, topical or ocular, 10 mg topical powder, 6 min; studies 1-3
readout-label: concentration at 0.1 h (µg/mL)
Write the number in µg/mL without appending the unit.

// query concentration at 0.1 h value for entry CC1(C)S[C@@H]2[C@H](NC(=O)Cc3ccccc3)C(=O)N2[C@H]1C(=O)O
60000
